Tested on: SK-MEL-2 melanoma
Assay: NCI tumour cell line growth inhibition, 48 h; in the data active = GI50 below about 0.43 µM; inactive = the rest
The categories you may choose from are yes (1) (active), no (0) (inactive)

Solved cases below.
# smiles-data, answer-label
measured = [
    ("COc1cc2c(cc1OCCCN1CCN(CCCn3c4ccccc4c4ccccc43)CC1)N=C[C@@H]1CCCN1C2=O", "yes (1)"),
    ("Cc1cc(C2(c3cc(C)c(O)c4ncccc34)OC(=O)c3ccccc32)c2cccnc2c1O", "yes (1)"),
]

As a next step, examine the compound that follows.
Query block: Please let me know the test result on file for "ClCc1ccc(Cn2cnc3nc(Cl)nc(Cl)c32)cc1" .
Result block: no (0)

---

// TGI lookup, one value per entry
System: SW-620 colon
Experiment: NCI tumour cell line growth inhibition, 48 h

# compound, test-target, TGI
rows = [
    ("CC(=O)OC1CCC2(C)C(=CCC3C4CC(CN5CC5)C(=O)C4(C)CCC32)C1 (configuration not stated)", "SW-620 colon", "13.3 µM"),
    ("CCOC(=O)C1C(=O)C(=O)N2CCc3c([nH]c4ccccc34)C12 (configuration not stated)", "SW-620 colon", "> 100 µM"),
    ("COc1cc(COC(=O)NC(Cc2cccs2)C(=O)O)c([N+](=O)[O-])cc1OC (configuration not stated)", "SW-620 colon", "> 100 µM"),
    ("CCCCN1/C(=N/Nc2n[nH]c(=O)c3ccccc23)SCC1c1ccc(Cl)cc1 (configuration not stated)", "SW-620 colon", "53 µM"),
    ("COc1ccc(-c2ccc(/C=N/n3c(COc4ccc(Cl)c(C)c4)nn(CN4CCOCC4)c3=S)o2)c([N+](=O)[O-])c1", "SW-620 colon", "48.9 µM"),
    ("Nn1c(=S)[nH]nc(/C=C/c2c(O)ccc3ccccc23)c1=O", "SW-620 colon", "> 100 µM"),
    ("COc1ccc(S(=O)(=O)NCCCNc2nccc(-c3c(-c4ccc(F)cc4)nc4sccn34)n2)cc1", "SW-620 colon", "> 100 µM"),
    ("Cn1c(=O)c(C#N)c(O)c2cc3ccccc3nc21", "SW-620 colon", "> 100 µM"),
]

Short answer on SW-620 colon for "O=C(Nc1cccc(C(F)(F)F)c1)Nc1cc(S(=O)(=O)NC2CC2)ccc1-c1ccsc1" , TGI: 18.5 µM

Short answer on SW-620 colon for "O=C(/C=C/c1ccc(OCC(=O)N2CCN(c3ccccc3)CC2)cc1)c1ccccc1" , TGI: > 28.4 µM

Assay SW-620 colon, sample "O=C1Cc2c(-c3ccccc3)cc(-c3ccc(Cl)cc3)nc2-c2ccccc2N1" , TGI read: > 47.6 µM

Response field TGI (SW-620 colon) for item "CCCNc1ncnc2c1cnn2C" : > 100 µM

Note to self: TGI of "Cc1cc2c(=O)cc(-c3ccncc3)oc2c(C(=O)O)c1C" with SW-620 colon was > 100 µM

---

System: HT29 colon
Test: NCI tumour cell line growth inhibition, 48 h
In this section, each of the molecules is paired with its reported TGI.

# molecule, measured-result
rows = [
    ("CO/C(N)=C(\\C#N)N=Cc1cccs1", "> 100 µM"),
]

TGI for "O=NNc1nc(-c2ccccn2)nc2ccccc12" is 18.7 µM

Entry "C[C@@H](c1ccccc1)N(CC#N)[C@H]1CCC[C@]1(O)/C=C/c1ccc2c(c1)OCO2" ; TGI = > 25 µM

Field TGI (entry "COc1ccc(S(=O)(=O)NCCCNc2nccc(-c3c(-c4ccc(F)cc4)nc4sccn34)n2)cc1" ) reads 20.2 µM

Per the records, this molecule ( O=P1(C(O)c2ccccc2)N(Cc2ccccc2)[C@@H]2CCCC[C@H]2N1Cc1ccccc1 (stereo not given in full) ) has TGI equal to 46.3 µM
